System: A498 renal
Assay: NCI-60 one-dose screen, 48 h
Conditions: 10 µM
Description: Growth inhibition of the A498 human tumor cell line is measured as a screen for anti-cancer activity. Cells are grown in 96 well plates and exposed to the test compound for 48 hours. Compounds are tested at a single concentration, which is 10^-5 M for most compounds. The reported endpoint is percent growth (GI% or GIPRCNT), where numbers from 0 - 100% represent growth inhibition, and numbers from -100% - 0 represent cell death. For example, a value of 40 represents 60% growth inhibition. […]
This is part of a sample that, as a whole, favours compounds with a hit. Of some 83,000 tested, about 20% had one in any assay. Calls of active or inactive are those of the source. How the source made its calls: active means growth percent below 10; inactive means the rest.
Can you answer with just one of these options? active, inactive

// below: answered molecules
>  <MOLECULE>
O=C(O)c1ccc(P(=O)(O)O)c([N+](=O)[O-])c1

>  <ASSIGNED_CLASS>
inactive

$$$$
>  <MOLECULE>
COc1ccc(/C=C/C(=O)Nc2ccc(-c3nc4ccc(OC)cc4s3)cc2)cc1

>  <ASSIGNED_CLASS>
inactive

$$$$
>  <MOLECULE>
COc1ccc2c(c1)C(=O)c1c-2c(OCCN(C)C)nc2ccccc12

>  <ASSIGNED_CLASS>
inactive

$$$$
>  <MOLECULE>
Cc1cc(C)c(NC(=O)c2sc3nc4c(cc3c2N)C(=O)CCC4)c(C)c1

>  <ASSIGNED_CLASS>
active

$$$$

Here is another molecule to look at.
Any idea what this test logged for CO/N=C(/C(=O)NC1C(=O)N2C(C(=O)O)=C(COC(N)=O)CSC12)c1ccco1 (stereo not given) ?
inactive

----------
Tested on: SK-MEL-28 melanoma
Assay: NCI-60 one-dose screen, 48 h
Settings: 10 µM
About 83,000 compounds went through this panel and 20% of them were active in at least one assay; those are over-represented in the sample as a whole. Calls of active or inactive are those of the source. Rule for the calls: active = growth percent below 10; inactive = the rest.
Can you answer with just one of these options? Yes for active, No for inactive

Any idea what this test logged for O=C1N=NC2=C1c1c3ccccc3c(O)n1CC2 ?
No

Any idea what this test logged for CN(C)CCCn1c(=O)c2ccccc2c2cnc3[nH]ccc3c21 ?
No

Any idea what this test logged for O=C1OCC2=C1C(c1ccc(Cl)c(Cl)c1)c1cc3c(cc1N2CCO)OCCO3 (stereo not given) ?
No

Any idea what this test logged for CS(=O)(=O)Nc1ccc(Nc2c3ccccc3nc3cc([N+](=O)[O-])ccc23)cc1 ?
No

----------
System: COLO 205 colon
Assay: NCI-60 one-dose screen, 48 h
Conditions: 10 µM
About 83,000 compounds went through this panel and 20% of them were active in at least one assay; those are over-represented in the sample as a whole. Activity calls are given as the source filed them. How the source made its calls: active means growth percent below 10; inactive means the rest.
Can you answer with just one of these options? class 1 for active, class 0 for inactive

// below: answered molecules
>  <MOLECULE>
COc1ccc(-c2nc3sc(-c4ccccc4)c(-c4ccccc4)n3c2/C=C/C(=O)c2ccccn2)cc1

>  <ASSAY_TARGET>
COLO 205 colon

>  <ASSIGNED_CLASS>
class 0

$$$$
>  <MOLECULE>
O=C(N/N=C/c1ccccc1O)C(O)(c1ccccc1)c1ccccc1

>  <ASSAY_TARGET>
COLO 205 colon

>  <ASSIGNED_CLASS>
class 0

$$$$
>  <MOLECULE>
COc1ccc(Oc2nc(NC3CCCC3)nc(Sc3ccc(OC)cc3)n2)cc1

>  <ASSAY_TARGET>
COLO 205 colon

>  <ASSIGNED_CLASS>
class 0

$$$$
>  <MOLECULE>
CCOC(=O)C(CSC(c1ccccc1)(c1ccccc1)c1ccccc1)NC(=O)C(CSC(c1ccccc1)(c1ccccc1)c1ccccc1)NC(c1ccccc1)(c1ccccc1)c1ccccc1 (stereo not drawn)

>  <ASSAY_TARGET>
COLO 205 colon

>  <ASSIGNED_CLASS>
class 0

$$$$
>  <MOLECULE>
Cc1ccc2oc3nc(C)c(C(=O)NCc4ccccc4)cc3c(=O)c2c1

>  <ASSAY_TARGET>
COLO 205 colon

>  <ASSIGNED_CLASS>
class 0

$$$$

Here is another molecule to look at.
Any idea what this test logged for COC(=O)C(=C\c1ccc2c(c1)OCO2)/C(=C/c1ccc2c(c1)OCO2)C(=O)OC ?
class 0
